Value source: PubChem BioAssay AID1919014

Task for the reader: assign each of the following compounds its reported viability, T/C.
- Test system: NCI-H1341 complex spheroids, percent test/control
- PROTOCOL_TEXT: Anticancer human tumor NCI-H1341 cell line growth inhibition [AhR];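 also: spheroids exposed to agents for seven days before readout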
- MEASUREMENT_PARAMETERS: second compound 3.16 µM; first compound 10 µM; hits give low values

Input line: Specify measured viability, T/C for CC1(C)CCC(CN2CCN(c3ccc(C(=O)NS(=O)(=O)c4ccc(NCC5CCOCC5)c([N+](=O)[O-])c4)c(Oc4cnc5[nH]ccc5c4)c3)CC2)=C(c2ccc(Cl)cc2)C1 + Cc1ccccc1N=Nc1ccc(NC(=O)c2ccnn2C)c(C)c1 .
Output line: 16.5%

Input line: Using known records, supply viability, T/C for COc1cc(Nc2ncc3c(n2)-c2ccc(Cl)cc2C(c2c(F)cccc2OC)=NC3)ccc1C(=O)O + Cc1cncc(-c2nc(NCCc3c[nH]c4ccccc34)c3ncn(C(C)C)c3n2)c1
Output line: 24%

Input line: Name the recorded viability, T/C of the item O=C(C=Cc1cccc(S(=O)(=O)Nc2ccccc2)c1)NO + Cc1ccccc1N=Nc1ccc(NC(=O)c2ccnn2C)c(C)c1 in your answer.
Output line: 0.58%

Input line: Look up and report measured viability, T/C for this entry: NS(=O)(=O)OCC1CC(n2ccc3c(NC4CCc5ccccc54)ncnc32)CC1O (stereo not drawn) + Cc1cncc(-c2nc(NCCc3c[nH]c4ccccc34)c3ncn(C(C)C)c3n2)c1
Output line: 17%

Input line: Report viability, T/C, nothing else, for this compound: NS(=O)(=O)OCC1CC(n2ccc3c(NC4CCc5ccccc54)ncnc32)CC1O (stereo not drawn) + CC(CO)NC(=O)c1cc(-c2ccc(Cl)cc2)nn(-c2cnn(C)c2)c1=O
Output line: 4.2%

Input line: In one line, give reported viability, T/C of the entry CC1COCCN1c1cc(C2(S(C)(=N)=O)CC2)nc(-c2ccnc3[nH]ccc23)n1 (stereo not drawn) + Cc1ccccc1N=Nc1ccc(NC(=O)c2ccnn2C)c(C)c1 .
Output line: 26%

Input line: Check the records and state viability, T/C for O=C(C=Cc1cccc(S(=O)(=O)Nc2ccccc2)c1)NO + CC(CO)NC(=O)c1cc(-c2ccc(Cl)cc2)nn(-c2cnn(C)c2)c1=O
Output line: 0.71%

Input line: Consider the compound COc1ccc([C@@H](O)c2cc(-c3ncnc4cc(N5CCOCC5)ccc34)c(F)cc2Cl)nn1 + Cc1ccccc1N=Nc1ccc(NC(=O)c2ccnn2C)c(C)c1 . State its measured viability, T/C.
Output line: 5.82%

Input line: Please give the documented viability, T/C of Nc1ccn(C2OC(CO)C(O)C2(F)F)c(=O)n1 (stereo not drawn) + Cc1cncc(-c2nc(NCCc3c[nH]c4ccccc34)c3ncn(C(C)C)c3n2)c1
Output line: 21.6%

Input line: Please supply the value of reported viability, T/C for the item Nc1ccccc1NC(=O)c1ccc(CNC(=O)OCc2cccnc2)cc1 + Cc1cncc(-c2nc(NCCc3c[nH]c4ccccc34)c3ncn(C(C)C)c3n2)c1
Output line: 0.87%

Input line: Note viability, T/C for the compound shown: COc1cc(C2c3cc4c(cc3C(OC3OC5COC(C)OC5C(O)C3O)C3COC(=O)C23)OCO4)cc(OC)c1O (stereo not drawn) + Cc1cncc(-c2nc(NCCc3c[nH]c4ccccc34)c3ncn(C(C)C)c3n2)c1
Output line: 32.7%

Input line: State its viability, T/C: O=C(C=Cc1cccc(S(=O)(=O)Nc2ccccc2)c1)NO + Cc1cncc(-c2nc(NCCc3c[nH]c4ccccc34)c3ncn(C(C)C)c3n2)c1
Output line: 0.56%

Input line: Answer with the recorded viability, T/C of COc1ccc([C@@H](O)c2cc(-c3ncnc4cc(N5CCOCC5)ccc34)c(F)cc2Cl)nn1 + Cc1cncc(-c2nc(NCCc3c[nH]c4ccccc34)c3ncn(C(C)C)c3n2)c1 only.
Output line: 4.69%

Input line: Indicate the recorded viability, T/C value for this compound: O=C(c1cc(Cc2n[nH]c(=O)c3ccccc23)ccc1F)N1CCN(C(=O)C2CC2)CC1 + CC(CO)NC(=O)c1cc(-c2ccc(Cl)cc2)nn(-c2cnn(C)c2)c1=O
Output line: 60.7%

Input line: Note down viability, T/C recorded for CC(C)c1c(-c2ccccc2)nc2c(C#N)c[nH]n2c1=O + Cc1ccccc1N=Nc1ccc(NC(=O)c2ccnn2C)c(C)c1
Output line: 76.4%

Input line: Please give measured viability, T/C of the following entry: Nc1ccccc1NC(=O)c1ccc(CNC(=O)OCc2cccnc2)cc1 + CC(CO)NC(=O)c1cc(-c2ccc(Cl)cc2)nn(-c2cnn(C)c2)c1=O
Output line: 0.79%

Input line: Give the reported viability, T/C for this compound. NS(=O)(=O)OCC1CC(n2ccc3c(NC4CCc5ccccc54)ncnc32)CC1O (stereo not drawn) + Cc1ccccc1N=Nc1ccc(NC(=O)c2ccnn2C)c(C)c1
Output line: 6.85%

Input line: State its viability, T/C for this compound: O=C(c1cc(Cc2n[nH]c(=O)c3ccccc23)ccc1F)N1CCN(C(=O)C2CC2)CC1 + Cc1cncc(-c2nc(NCCc3c[nH]c4ccccc34)c3ncn(C(C)C)c3n2)c1
Output line: 51.4%

Input line: // Input: COc1cc(Nc2ncc3c(n2)-c2ccc(Cl)cc2C(c2c(F)cccc2OC)=NC3)ccc1C(=O)O + CC(CO)NC(=O)c1cc(-c2ccc(Cl)cc2)nn(-c2cnn(C)c2)c1=O . Output its viability, T/C only.
Output line: 27.6%

Input line: Entry CC1COCCN1c1cc(C2(S(C)(=N)=O)CC2)nc(-c2ccnc3[nH]ccc23)n1 (stereo not drawn) + CC(CO)NC(=O)c1cc(-c2ccc(Cl)cc2)nn(-c2cnn(C)c2)c1=O needs its viability, T/C filled in; supply it.
Output line: 17.6%

Input line: Supply viability, T/C value. Item: Nc1ccn(C2OC(CO)C(O)C2(F)F)c(=O)n1 (stereo not drawn) + CC(CO)NC(=O)c1cc(-c2ccc(Cl)cc2)nn(-c2cnn(C)c2)c1=O
Output line: 27%

Input line: Given the compound CC1(C)CCC(CN2CCN(c3ccc(C(=O)NS(=O)(=O)c4ccc(NCC5CCOCC5)c([N+](=O)[O-])c4)c(Oc4cnc5[nH]ccc5c4)c3)CC2)=C(c2ccc(Cl)cc2)C1 + CC(CO)NC(=O)c1cc(-c2ccc(Cl)cc2)nn(-c2cnn(C)c2)c1=O , write its reported viability, T/C.
Output line: 12.4%

Input line: Provide one value: measured viability, T/C of CC1COCCN1c1cc(C2(S(C)(=N)=O)CC2)nc(-c2ccnc3[nH]ccc23)n1 (stereo not drawn) + Cc1cncc(-c2nc(NCCc3c[nH]c4ccccc34)c3ncn(C(C)C)c3n2)c1
Output line: 25.6%

* * *

- System: NCI-H1341 complex spheroids, percent test/control
- PROTOCOL_TEXT: Anticancer human tumor NCI-H1341 cell line growth inhibition [AhR];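 also: spheroids exposed to agents for seven days before readout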
- MEASUREMENT_PARAMETERS: second compound 0.1 µM; first compound 0.001 µM; hits give low values
hey, just use 1 if measured viability, T/C is less than 90%, otherwise 0

Input line: Does the reported viability, T/C of Cn1ncnc1C1c2n[nH]c(=O)c3cc(F)cc(c23)NC1c1ccc(F)cc1 (stereo unspecified) + Cc1cncc(-c2nc(NCCc3c[nH]c4ccccc34)c3ncn(C(C)C)c3n2)c1 stay below 90%?
Output line: 0

Input line: Answer whether the molecule CC[C@@]1(O)C(=O)OCc2c1cc1n(c2=O)Cc2cc3c(CN(C)C)c(O)ccc3nc2-1 + CC(CO)NC(=O)c1cc(-c2ccc(Cl)cc2)nn(-c2cnn(C)c2)c1=O has viability, T/C strictly less than 90%
Output line: 1

Input line: # strict comparison: is reported viability, T/C < 90%? input = Cn1ncnc1C1c2n[nH]c(=O)c3cc(F)cc(c23)NC1c1ccc(F)cc1 (stereo unspecified) + CC(CO)NC(=O)c1cc(-c2ccc(Cl)cc2)nn(-c2cnn(C)c2)c1=O
Output line: 1

Input line: Record CC[C@@]1(O)C(=O)OCc2c1cc1n(c2=O)Cc2cc3c(CN(C)C)c(O)ccc3nc2-1 + Cc1cncc(-c2nc(NCCc3c[nH]c4ccccc34)c3ncn(C(C)C)c3n2)c1 : is its viability, T/C strictly below 90%?
Output line: 1

Input line: Find out if reported viability, T/C for Cn1ncnc1C1c2n[nH]c(=O)c3cc(F)cc(c23)NC1c1ccc(F)cc1 (stereo unspecified) + Cc1ccccc1N=Nc1ccc(NC(=O)c2ccnn2C)c(C)c1 is less than 90%
Output line: 0

Input line: Is viability, T/C of CC[C@@]1(O)C(=O)OCc2c1cc1n(c2=O)Cc2cc3c(CN(C)C)c(O)ccc3nc2-1 + Cc1ccccc1N=Nc1ccc(NC(=O)c2ccnn2C)c(C)c1 strictly below 90%?
Output line: 0

* * *

- Tested on: NCI-H1341 complex spheroids, percent test/control
- PROTOCOL_TEXT: Anticancer human tumor NCI-H1341 cell line growth inhibition [AhR]; active means viability on the fitted dose curve at most 10% of control; inactive means the rest;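 also: spheroids exposed to agents for seven days before readout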
- MEASUREMENT_PARAMETERS: second compound 10 µM; first compound 0.949 µM
Can you answer with just one of these options? 1 (yes) (active), 0 (no) (inactive)

Input line: Could you kindly confirm the outcome this assay logged for O=C(C=Cn1cnc(-c2cc(C(F)(F)F)cc(C(F)(F)F)c2)n1)NNc1cnccn1 + Cc1ccccc1N=Nc1ccc(NC(=O)c2ccnn2C)c(C)c1 ?
Output line: 0 (no)

Input line: Could you kindly confirm the outcome this assay logged for CCN(c1cc(-c2ccc(CN3CCOCC3)cc2)cc(C(=O)NCc2c(C)cc(C)[nH]c2=O)c1C)C1CCOCC1 + Cc1ccccc1N=Nc1ccc(NC(=O)c2ccnn2C)c(C)c1 ?
Output line: 0 (no)

Input line: In this assay, the call recorded for O=C(C=Cn1cnc(-c2cc(C(F)(F)F)cc(C(F)(F)F)c2)n1)NNc1cnccn1 + Cc1cncc(-c2nc(NCCc3c[nH]c4ccccc34)c3ncn(C(C)C)c3n2)c1 was what?
Output line: 1 (yes)
